# Target Or Test System: T1, human CEA protein on the cell surface (human, UniProt P06731 35-685)
# T1 construct: whole, on cells; also called CEACAM-5; CD66e
# T1 sequence (looked up): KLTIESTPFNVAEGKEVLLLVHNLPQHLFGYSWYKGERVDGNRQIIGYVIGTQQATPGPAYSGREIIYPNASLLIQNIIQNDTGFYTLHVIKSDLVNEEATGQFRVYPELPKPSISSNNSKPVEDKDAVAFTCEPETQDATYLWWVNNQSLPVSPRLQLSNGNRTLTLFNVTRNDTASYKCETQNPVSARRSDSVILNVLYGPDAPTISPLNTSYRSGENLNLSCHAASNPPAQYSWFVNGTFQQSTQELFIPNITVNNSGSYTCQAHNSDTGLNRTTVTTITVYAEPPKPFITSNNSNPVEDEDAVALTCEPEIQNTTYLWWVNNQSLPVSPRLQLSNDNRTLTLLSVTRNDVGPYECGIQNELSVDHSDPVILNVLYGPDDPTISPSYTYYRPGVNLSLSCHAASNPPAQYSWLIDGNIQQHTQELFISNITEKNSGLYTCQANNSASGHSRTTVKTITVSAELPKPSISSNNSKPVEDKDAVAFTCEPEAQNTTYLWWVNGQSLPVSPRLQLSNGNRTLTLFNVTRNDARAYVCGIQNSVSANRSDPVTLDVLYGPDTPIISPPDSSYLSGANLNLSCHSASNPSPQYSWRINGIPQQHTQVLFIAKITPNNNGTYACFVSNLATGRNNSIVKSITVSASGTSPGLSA
# Assay Comment: FACS, MKN45 cells
In plain terms, low EC50, meaning strictly below 5 nM, gives YES, and everything else gives NO.

Hu63-2 (antibody, human IgG1, kappa, V domains shown) VH: EVQLVQSGAEVKKPGASVKVSCKASGYTFTDFYMNWVRQAPGQGLEWMGDIFPKNGNTDYNRKFKDRVTMTRDTSTSTVYMELSSLRSEDTAVYYCARSGYGNYVFDYWGQGTLVTVSS VL: DVQMTQSPSSLSASVGDRVTITCRTSQDINIYLNWYQQKPGKAPKLLIYYRSGLLSGVPSRFSGSGSGTDYTLTISSLQPEDFATYYCQQGNTLPPTFGGGTKVEIKR :: YES
Hu67-10 (antibody, human IgG1, kappa, V domains shown) VH: EVQLVQSGAEVKKPGESLKISCKGSGYSFTDYHMNWVRQMPGKGLEWMGDINPDIGGTSYNQNFKGQVTISADKSISTAYLQWSSLKASDTAMYYCARWDFDSFANWGQGTLVTVSS VL: DIVMTQSPSSLSASVGDRVTITCRASESVSIIGTNLIHWYQQKPGKPPKLLIYHASNLETGVPSRFSGSGSGTDFTLTISSLQPEDFATYYCLQSRKIPYTFGGGTKVEIKR :: YES
Hu47-10 (antibody, human IgG1, kappa, V domains shown) VH: EVQLVQSGSELKKPGASVKVSCKASGYTFTTYGMSWVKQAPGQGLKWMGWINTYSGVPTYADDFKGRFVFSLDTSVSTAYLQISSLKAEDTAVYYCARRGNYGRWDFDVWGQGTTVTVSS VL: EIVLTQSPDFQSVTPKEKVTITCSVSSTISSSNLHWYQQKPDQSPKPLIYGTSNLASGVPSRFSGSGSGTDYTLTINSLEAEDAATYYCQQWSIYPLTFGQGTKLEIKR :: YES

Okay, now this binder:
// query For this binder, is EC50 lower than 5 nM? Hu63-4 (antibody, human IgG1, kappa, V domains shown) VH: EVQLVQSGAEVKKPGASVKVSCKASGYTFTDFYMNWVRQAPGQGLEWMGDIFPKNGNTDYNRKFKDRVTLTVDKSTSTVYMELSSLRSEDTAVYYCARSGYGNYVFDYWGQGTLVTVSS VL: DIQMTQSPSSLSASVGDRVTITCRTSQDINIYLNWYQQKPGKAPKLLIYYRSGLLSGVPSRFSGSGSGTDFTLTISSLQPEDFATYYCQQGNTLPPTFGGGTKVEIKR
// result NO
